Data provenance is patent US20240182445A1.

Biological target: human TREK-1 (Homo sapiens, UniProt O95069)
Construct: expressed in transfected cells
Assay: TREK-1 Manual Patch Clamp (hMPC) assay
Format: cell-based
Details: CHO-K1 cells stably expressing human TREK-1; whole-cell current at 0 mV
pIC50: −log10 of the molar value.
readoutLabel: pIC50

- molecule: "Cc1cc(C#Cc2ccccc2)cnc1NC(=O)c1c(Cl)cnn1C1CCn2nccc2C1 (centres unmarked)"
  measuredResult: 7.70
- molecule: "CC(=O)N1CCC(n2ncc(Cl)c2C(=O)Nc2ncc(C#Cc3ccc(F)cc3)cc2F)CC1"
  measuredResult: 7.52
- molecule: "CC(=O)N1CC(F)(Cn2ncc(Cl)c2C(=O)Nc2ncc(C#Cc3ccccc3)cc2C)C1"
  measuredResult: 6.89
- molecule: "Cc1cc(C#Cc2ccccc2)cnc1NC(=O)c1c(Cl)cnn1CC1CCOCC1"
  measuredResult: 7.22
- molecule: "CC(=O)N[C@H]1CC[C@@H](n2ncc(Cl)c2C(=O)Nc2ncc(C#Cc3ccccc3)cc2F)CC1"
  measuredResult: 7.22
- molecule: "CC(=O)N1CCC(n2ncc(Cl)c2C(=O)Nc2ncc(C#Cc3ccc(F)cc3)cc2C)[C@H](F)C1 (stereo in doubt)"
  measuredResult: 7.22
- molecule: "CC(=O)N1CCC([C@H](C)n2ncc(Cl)c2C(=O)Nc2ncc(C#Cc3ccccc3)cc2C)CC1"
  measuredResult: 6.80
- molecule: "Cc1cc(C#Cc2ccccc2)cnc1NC(=O)c1c(Cl)cnn1[C@H]1CCN(C(=O)C2CC2)C1"
  measuredResult: 7.00

###

Target: CYP3A4 (Homo sapiens, UniProt P08684)
Sequence (P08684 whole entry): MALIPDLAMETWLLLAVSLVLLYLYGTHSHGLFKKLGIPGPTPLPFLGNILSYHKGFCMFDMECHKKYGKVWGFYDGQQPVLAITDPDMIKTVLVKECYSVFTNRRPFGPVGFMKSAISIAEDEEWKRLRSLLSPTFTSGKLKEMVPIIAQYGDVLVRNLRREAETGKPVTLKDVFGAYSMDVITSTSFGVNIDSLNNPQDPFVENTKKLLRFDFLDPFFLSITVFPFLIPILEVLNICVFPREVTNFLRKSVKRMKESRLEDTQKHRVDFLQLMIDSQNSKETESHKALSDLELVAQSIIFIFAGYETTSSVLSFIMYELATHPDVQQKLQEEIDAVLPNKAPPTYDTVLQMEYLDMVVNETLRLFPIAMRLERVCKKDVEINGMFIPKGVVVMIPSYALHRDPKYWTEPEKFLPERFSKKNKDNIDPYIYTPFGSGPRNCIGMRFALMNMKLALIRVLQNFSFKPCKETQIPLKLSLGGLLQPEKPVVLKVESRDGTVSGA
Assay: P450 inhibition 3A4
Format: in vitro ADME
readoutLabel: IC50

- molecularString: "CC(=O)N[C@H]1CC[C@@H](n2ncc(Cl)c2C(=O)Nc2ncc(C#Cc3ccccc3)cc2C)CC1"
  measuredResult: "> 30 µM"

###

Target: human TREK-1 (Homo sapiens, UniProt O95069)
Construct: expressed in transfected cells
Sequence (O95069 1-426): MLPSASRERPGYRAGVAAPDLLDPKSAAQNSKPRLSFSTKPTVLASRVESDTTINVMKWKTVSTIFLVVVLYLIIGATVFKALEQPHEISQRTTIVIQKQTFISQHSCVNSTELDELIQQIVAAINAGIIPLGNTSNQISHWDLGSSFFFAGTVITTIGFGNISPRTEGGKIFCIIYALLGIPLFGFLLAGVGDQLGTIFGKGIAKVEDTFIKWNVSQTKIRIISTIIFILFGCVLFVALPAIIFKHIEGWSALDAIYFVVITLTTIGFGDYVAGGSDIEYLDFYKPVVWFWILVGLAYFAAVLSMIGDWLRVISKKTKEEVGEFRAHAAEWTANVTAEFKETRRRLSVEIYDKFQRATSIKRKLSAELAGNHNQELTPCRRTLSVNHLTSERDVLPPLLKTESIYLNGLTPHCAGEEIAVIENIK
Assay: TREK-1 Thallium (Tl+) flux assay, Method 1
Assay type: cell-based
Details: TREK-1 Thallium (Tl+) flux assay; values without footnote *12 are Method 1

- molecule: "Cc1cc(C#Cc2cccs2)cnc1NC(=O)c1c(Cl)cnn1CC1CCN(C(=O)C(C)C)CC1"
  unitOfMeasurement: "nM"
  IC50: 160
- molecule: "CC(=O)N1CC[C@H](n2ncc(Cl)c2C(=O)Nc2ncc(C#Cc3ccccc3)cc2C)C[C@@H]1C (single isomer, unassigned) [Compound 114]"
  unitOfMeasurement: "nM"
  IC50: 200
- molecule: "Cc1cc(C#Cc2ccccc2)cnc1NC(=O)c1c(Cl)cnn1CC1CCN(C(=O)C(C)C)CC1"
  unitOfMeasurement: "nM"
  IC50: 140
- molecule: "CC(=O)N1CC[C@H](n2ncc(Cl)c2C(=O)Nc2ncc(C#Cc3ccccc3)cc2C)[C@H](F)C1"
  unitOfMeasurement: "nM"
  IC50: 180
- molecule: "O=C(Nc1c(F)cc(C#Cc2ccccc2)cc1F)c1c(Cl)cnn1C[C@@H]1CCOC1"
  unitOfMeasurement: "nM"
  IC50: 260
- molecule: "CS(=O)(=O)N1CCC(n2ncc(Cl)c2C(=O)Nc2ncc(C#Cc3ccccc3)cc2F)CC1"
  unitOfMeasurement: "nM"
  IC50: 160
- molecule: "CC(=O)N1CCC(n2ncc(Cl)c2C(=O)Nc2ncc(C#Cc3cccc(F)c3)cc2C)CC1"
  unitOfMeasurement: "nM"
  IC50: 160
